PROTOCOL_DESCRIPTION: total protein half-life in vivo (active degradation + dilution); higher = more stable protein
CONDITION: wild type E. coli NCM3722; growth: N-lim chemostat; doubling time 6 h
ENDPOINT_LABEL: total protein half-life in vivo
Provide the measurement as a number trailed by its unit.

Consider MAEIGIFVGTMYGNSLLVAEEAEAILTAQGHKATVFEDPELSDWLPYQDKYVLVVTSTTGQGDLPDSIVPLFQGIKDSLGFQPNLRYGVIALGDSSYVNFCNGGKQFDALLQEQSAQRVGEMLLIDASENPEPETESNPWVEQWGTLLS . Its measured total protein half-life in vivo is 5.7 h

Entry MKLTIIRLEKFSDQDRIDLQKIWPEYSPSSLQVDDNHRIYAARFNERLLAAVRVTLSGTEGALDSLRVREVTRRRGVGQYLLEEVLRNNPGVSCWWMADAGVEDRGVMTAFMQALGFTAQQGGWEKC , total protein half-life in vivo reported as 3.31 h

Record MSAGSPKFTVRRIAALSLVSLWLAGCSDTSNPPAPVSSVNGNAPANTNSGMLITPPPKMGTTSTAQQPQIQPVQQPQIQATQQPQIQPVQPVAQQPVQMENGRIVYNRQYGNIPKGSYSGSTYTVKKGDTLFYIAWITGNDFRDLAQRNNIQAPYALNVGQTLQVGNASGTPITGGNAITQADAAEQGVVIKPAQNSTVAVASQPTITYSESSGEQSANKMLPNNKPTATTVTAPVTVPTASTTEPTVSSTSTSTPISTWRWPTEGKVIETFGASEGGNKGIDIAGSKGQAIIATADGRVVYAGNALRGYGNLIIIKHNDDYLSAYAHNDTMLVREQQEVKAGQKIATMGSTGTSSTRLHFEIRYKGKSVNPLRYLPQR [P0ADA3] , field total protein half-life in vivo: 6.01 h

====

PROTOCOL_DESCRIPTION: total protein half-life in vivo (active degradation + dilution); higher = more stable protein
CONDITION: E. coli NCM3722 delta-lon; growth: N-lim chemostat; doubling time 6 h
ENDPOINT_LABEL: total protein half-life in vivo (h)
Express the result in h but write the number alone.

total protein half-life in vivo for MKYDLIIIGSGSVGAAAGYYATRAGLNVLMTDAHMPPHQHGSHHGDTRLIRHAYGEGEKYVPLVLRAQTLWDELSRHNEEDPIFVRSGVINLGPADSTFLANVAHSAEQWQLNVEKLDAQGIMARWPEIRVPDNYIGLFETDSGFLRSELAIKTWIQLAKEAGCAQLFNCPVTAIRHDDDGVTIETADGEYQAKKAIVCAGTWVKDLLPELPVQPVRKVFAWYQADGRYSVKNKFPAFTGELPNGDQYYGFPAENDALKIGKHNGGQVIHSADERVPFAEVASDGSEAFPFLRNVLPGIGCCLYGAACTYDNSPDEDFIIDTLPGHDNTLLITGLSGHGFKFASVLGEIAADFAQDKKSDFDLTPFRLSRFQ is 3.34

Query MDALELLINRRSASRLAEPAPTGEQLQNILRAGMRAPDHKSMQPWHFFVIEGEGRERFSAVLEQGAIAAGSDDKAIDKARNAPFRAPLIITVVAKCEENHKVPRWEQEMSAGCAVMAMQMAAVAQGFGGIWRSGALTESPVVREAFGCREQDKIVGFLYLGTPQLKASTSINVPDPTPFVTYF [P0ACY1] yields total protein half-life in vivo of 4.85
